Hey, just so you know, these numbers are from patent US20240059758A1.

- System: receptor binding domain (RBD) of the S1-subunit of SARS-CoV-2 glycoprotein S (UniProt P0DTC2 319-541)
- Assay Remarks: flow
Measured Endpoint: pIC50
Scale for pIC50: -log10 of concentration given in mol/L; no unit attached.

Note down pIC50 recorded for STE72-4E12 (antibody, V domains shown) VH: QVQLVQSGAEVKKPGASVKVSCKASGYTFTSYYMHWVRQAPGQGLEWMGIINPSGGSTSYAQKFQGRVTMTRDTSTSTVYMELSSLRSEDTAVYYCARDLSGGLDYWGQGTLVTVSS VL: ETTLTQSPATLSVSPGERVTLACRAGQTISSKLAWYRQKPGQAPSLLIYDASTRATGVPARFSGSGSGTEFTLTISSLQSEDFAVYYCQQYSDWPPTFGQGTKVEIK
8.52
